Target: human KEAP1 (N-term, residues 321-609) (Homo sapiens, UniProt Q14145)
Sequence (Q14145 321-609): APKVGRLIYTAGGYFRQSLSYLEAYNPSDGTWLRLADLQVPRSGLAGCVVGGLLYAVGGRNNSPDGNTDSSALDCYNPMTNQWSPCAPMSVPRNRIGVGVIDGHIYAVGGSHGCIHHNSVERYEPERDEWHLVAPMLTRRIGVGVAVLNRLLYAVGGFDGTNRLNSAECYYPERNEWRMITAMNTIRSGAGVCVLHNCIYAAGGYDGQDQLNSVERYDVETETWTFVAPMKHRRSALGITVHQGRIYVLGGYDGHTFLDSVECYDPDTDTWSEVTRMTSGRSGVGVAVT
Experiment: biochemical
pIC50: −log10 of the molar value.
Entries annotated with measured pIC50

>  <molecule>
C[C@@H]1CCN(C[C@@H]2c3c(OCc4nnn(C)c4C(F)(F)F)ccc(Cl)c3CCN2C(=O)[C@@H]2CCCC[C@]2(C)C(=O)O)C1=O [Example 131]

>  <pIC50>
7.92

$$$$
>  <molecule>
CC(C)c1nc(COc2ccc(Cl)c3c2[C@@H](CN2CCCC2=O)N(C(=O)[C@@H]2CCCC[C@@H]2C(=O)O)CC3)no1 [Example 83]

>  <pIC50>
8.11

$$$$
>  <molecule>
C[C@]1(C(=O)O)CCCC[C@H]1C(=O)N1CCc2c(Cl)cc(F)c(OCc3nnn4c3CCC4)c2[C@H]1CN1CC2(CC2)CC1=O [Example 146]

>  <pIC50>
8.24

$$$$

###

Molecular target: human KEAP1 (N-term, residues 321-609) (Homo sapiens)
Assay: biochemical
IC50 less than 6 nM is TRUE; IC50 greater than or equal to 6 nM is FALSE.

>  <compoundString>
Cn1nnc(COc2ccc(Cl)c3c2[C@@H](CN2CCCC2=O)N(C(=O)[C@@H]2CCC[C@]2(C)C(=O)O)CC3)c1C(F)F

>  <assignedLabel>
TRUE

$$$$
>  <compoundString>
COCCn1nnc(COc2ccc(Cl)c3c2[C@@H](CN2CCCC2=O)N(C(=O)[C@@H]2CCCC[C@]2(C)C(=O)O)CC3)c1C(F)F

>  <assignedLabel>
FALSE

$$$$
>  <compoundString>
Cn1nnc(COc2ccc(Cl)c3c2[C@@H](CN2Cc4ccccc4C2=O)N(C(=O)[C@@H]2CCCC[C@@H]2C(=O)O)CC3)c1C(F)(F)F

>  <assignedLabel>
TRUE

$$$$
>  <compoundString>
C[C@H]1CCN(C[C@@H]2c3c(OCc4nnn(C)c4C(F)(F)F)ccc(Cl)c3CCN2C(=O)[C@@H]2CCCC[C@]2(C)C(=O)O)C1=O

>  <assignedLabel>
FALSE

$$$$
>  <compoundString>
Cn1cc(COc2ccc(Cl)c3c2[C@@H](CN2CCCC2=O)N(C(=O)[C@@H]2CCCC[C@]2(C)C(=O)O)CC3)nn1

>  <assignedLabel>
TRUE

$$$$

###

Target: human KEAP1 (N-term, residues 321-609) (Homo sapiens)
Assay: biochemical

>  <compound>
O=C(O)[C@H]1CCCC[C@H]1C(=O)N1CCc2c(Br)ccc(OCc3noc4ccccc34)c2[C@H]1CN1CCCC1=O [Example 67]

>  <IC50 [nM]>
8.5

$$$$
>  <compound>
C[C@]1(C(=O)O)CCCC[C@H]1C(=O)N1CCc2c(Cl)ccc(OCc3nnn4c3CCC4)c2[C@H]1CN1CC2(CC2)CC1=O [Example 181]

>  <IC50 [nM]>
5.1

$$$$
>  <compound>
Cc1c(COc2ccc(Cl)c3c2[C@@H](CN2CCCC2=O)N(C(=O)[C@@H]2CCCC[C@]2(C)C(=O)O)CC3)nnn1C [Example 107]

>  <IC50 [nM]>
6.6

$$$$
>  <compound>
Cc1nnc(COc2ccc(Cl)c3c2[C@@H](CN2CCCC2=O)N(C(=O)[C@@H]2CCCC[C@@H]2C(=O)O)CC3)n1C [Example 103]

>  <IC50 [nM]>
6.7

$$$$
>  <compound>
Cn1ncnc1COc1ccc(Br)c2c1[C@@H](CN1Cc3ccccc3C1=O)N(C(=O)[C@@H]1CCCC[C@@H]1C(=O)O)CC2 [Example 29]

>  <IC50 [nM]>
16

$$$$
>  <compound>
CCn1nnc(COc2ccc(Cl)c3c2[C@@H](CN2CCCC2=O)N(C(=O)[C@@H]2CCC[C@]2(C)C(=O)O)CC3)c1C(F)F [Example 119]

>  <IC50 [nM]>
8.1

$$$$

###

Biological target: human KEAP1 (N-term, residues 321-609) (Homo sapiens)
Test: biochemical
pIC50: −log10 of the molar value.

>  <molecule>
C[C@]1(C(=O)O)CCCC[C@H]1C(=O)N1CCc2c(Cl)ccc(OCc3ncsc3C(F)F)c2[C@H]1CN1CC2(CC2)CC1=O

>  <testedTarget>
human KEAP1 (N-term, residues 321-609) (Homo sapiens)

>  <pIC50>
8.16

$$$$
>  <molecule>
C[C@@H]1CC(=O)N(C[C@@H]2c3c(OCc4cn(C)nn4)ccc(Cl)c3CCN2C(=O)[C@@H]2CCCC[C@]2(C)C(=O)O)C1

>  <testedTarget>
human KEAP1 (N-term, residues 321-609) (Homo sapiens)

>  <pIC50>
8.10

$$$$
>  <molecule>
Cn1nnc(COc2ccc(Cl)c3c2[C@@H](CN2CC4(CC4)CC2=O)N(C(=O)[C@@H]2C[C@H]4C[C@H]4C[C@]2(C)C(=O)O)CC3)c1C(F)F

>  <testedTarget>
human KEAP1 (N-term, residues 321-609) (Homo sapiens)

>  <pIC50>
6.24

$$$$
>  <molecule>
Cc1cnc(COc2ccc(Br)c3c2[C@@H](CN2CCCC2=O)N(C(=O)[C@@H]2CCCC[C@@H]2C(=O)O)CC3)s1

>  <testedTarget>
human KEAP1 (N-term, residues 321-609) (Homo sapiens)

>  <pIC50>
7.96

$$$$
>  <molecule>
Cn1nnc(COc2ccc(Cl)c3c2[C@@H](CN2CC4(CC4)CC2=O)N(C(=O)[C@@H]2CCCC[C@]2(C)C(=O)O)CC3)c1C(F)F

>  <testedTarget>
human KEAP1 (N-term, residues 321-609) (Homo sapiens)

>  <pIC50>
8.24

$$$$
>  <molecule>
CC(Oc1ccc(Br)c2c1[C@@H](CN1Cc3ccccc3C1=O)N(C(=O)[C@@H]1CCCC[C@@H]1C(=O)O)CC2)c1cn(C)nn1 (some centres unmarked)

>  <testedTarget>
human KEAP1 (N-term, residues 321-609) (Homo sapiens)

>  <pIC50>
8.31

$$$$
>  <molecule>
Cc1c(COc2c(F)cc(Cl)c3c2[C@@H](CN2CC4(CC4)CC2=O)N(C(=O)[C@@H]2CCCC[C@]2(C)C(=O)O)CC3)nnn1C

>  <testedTarget>
human KEAP1 (N-term, residues 321-609) (Homo sapiens)

>  <pIC50>
8.28

$$$$
>  <molecule>
Cc1noc2nc(COc3ccc(Cl)c4c3[C@@H](CN3CCCC3=O)N(C(=O)[C@@H]3CCCC[C@@H]3C(=O)O)CC4)ccc12

>  <testedTarget>
human KEAP1 (N-term, residues 321-609) (Homo sapiens)

>  <pIC50>
8.10

$$$$
>  <molecule>
Cn1cnc(COc2ccc(Br)c3c2[C@@H](CN2Cc4ccccc4C2=O)N(C(=O)[C@@H]2CCCC[C@@H]2C(=O)O)CC3)c1

>  <testedTarget>
human KEAP1 (N-term, residues 321-609) (Homo sapiens)

>  <pIC50>
7.82

$$$$
>  <molecule>
COCc1c(COc2ccc(Cl)c3c2[C@@H](CN2CC4(CC4)CC2=O)N(C(=O)[C@@H]2CCCC[C@]2(C)C(=O)O)CC3)nnn1C

>  <testedTarget>
human KEAP1 (N-term, residues 321-609) (Homo sapiens)

>  <pIC50>
8.30

$$$$
>  <molecule>
COCCc1c(COc2ccc(Cl)c3c2[C@@H](CN2CCCC2=O)N(C(=O)[C@@H]2CCCC[C@]2(C)C(=O)O)CC3)nnn1C

>  <testedTarget>
human KEAP1 (N-term, residues 321-609) (Homo sapiens)

>  <pIC50>
8.06

$$$$
>  <molecule>
O=C(O)[C@H]1CCCC[C@H]1C(=O)N1CCc2c(Cl)ccc(OCc3nnc4ccccn34)c2[C@H]1CN1Cc2ccccc2C1=O

>  <testedTarget>
human KEAP1 (N-term, residues 321-609) (Homo sapiens)

>  <pIC50>
8.11

$$$$
>  <molecule>
Cn1nnc(COc2c(F)cc(Cl)c3c2[C@@H](CN2CC4(CC4)CC2=O)N(C(=O)[C@@H]2CCCC[C@]2(C)C(=O)O)CC3)c1C(F)F

>  <testedTarget>
human KEAP1 (N-term, residues 321-609) (Homo sapiens)

>  <pIC50>
8.21

$$$$
>  <molecule>
Cc1cnc(N2CC[C@H](Oc3ccc(Br)c4c3[C@@H](CN3Cc5ccccc5C3=O)N(C(=O)[C@@H]3CCCC[C@@H]3C(=O)O)CC4)C2)s1

>  <testedTarget>
human KEAP1 (N-term, residues 321-609) (Homo sapiens)

>  <pIC50>
8.33

$$$$
>  <molecule>
Cn1nc(COc2ccc(Cl)c3c2[C@@H](CN2CCCC2=O)N(C(=O)[C@@H]2CCCC[C@@H]2C(=O)O)CC3)c2ccccc21

>  <testedTarget>
human KEAP1 (N-term, residues 321-609) (Homo sapiens)

>  <pIC50>
8.00

$$$$
>  <molecule>
Cn1cnc(COc2ccc(Cl)c3c2[C@@H](CN2Cc4ccccc4C2=O)N(C(=O)[C@@H]2CCCC[C@@H]2C(=O)O)CC3)c1C(F)F

>  <testedTarget>
human KEAP1 (N-term, residues 321-609) (Homo sapiens)

>  <pIC50>
8.38

$$$$
>  <molecule>
[2H][C@@H]1CC[C@](C)(C(=O)O)[C@H](C(=O)N2CCc3c(Cl)ccc(OCc4nnn(C)c4C(F)F)c3[C@H]2CN2CC3(CC3)CC2=O)C1

>  <testedTarget>
human KEAP1 (N-term, residues 321-609) (Homo sapiens);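 further: fluorescence polarization competition assay of Kelch domain binding to NRF2, 12-point 1:3 dilution series from 10 µM, read after 1 h at room temperature, floor 10 nM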

>  <pIC50>
8.28

$$$$
